TARGET_OF_ASSAY: Mucosa-associated lymphoid tissue lymphoma translocation protein 1 (Homo sapiens)
Sequence (Q9UDY8 whole entry): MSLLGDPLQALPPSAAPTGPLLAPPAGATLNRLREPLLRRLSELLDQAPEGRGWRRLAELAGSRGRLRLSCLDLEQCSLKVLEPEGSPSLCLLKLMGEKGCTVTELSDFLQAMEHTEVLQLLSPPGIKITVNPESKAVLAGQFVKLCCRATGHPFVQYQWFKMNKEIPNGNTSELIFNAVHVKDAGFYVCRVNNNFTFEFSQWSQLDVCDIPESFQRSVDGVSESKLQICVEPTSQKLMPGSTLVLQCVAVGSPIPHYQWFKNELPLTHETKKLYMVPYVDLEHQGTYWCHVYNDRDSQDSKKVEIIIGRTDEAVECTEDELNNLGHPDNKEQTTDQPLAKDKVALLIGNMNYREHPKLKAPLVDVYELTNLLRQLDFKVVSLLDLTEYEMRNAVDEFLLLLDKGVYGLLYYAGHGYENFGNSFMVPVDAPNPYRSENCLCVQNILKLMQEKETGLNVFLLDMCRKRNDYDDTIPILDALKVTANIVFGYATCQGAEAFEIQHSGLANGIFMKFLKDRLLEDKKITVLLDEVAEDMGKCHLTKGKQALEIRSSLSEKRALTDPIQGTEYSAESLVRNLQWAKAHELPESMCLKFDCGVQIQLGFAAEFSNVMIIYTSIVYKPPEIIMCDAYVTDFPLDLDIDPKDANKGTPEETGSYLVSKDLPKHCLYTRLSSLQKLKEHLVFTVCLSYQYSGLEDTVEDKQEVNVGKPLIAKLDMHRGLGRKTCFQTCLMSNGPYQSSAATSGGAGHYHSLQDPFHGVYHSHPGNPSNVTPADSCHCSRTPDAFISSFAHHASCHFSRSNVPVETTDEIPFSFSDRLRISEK
OBSERVATION_TYPE: pKi
Quick note: pKi values are minus log10 of concentrations in mol/L.

// below: answered compounds
CC1=CC(C)=[N+]2C1=C(CCCc1cn(CCCCCC(=O)N[C@@H](CC(C)C)C(=O)N[C@H](C(=O)N3CCCC[C@H]3C(=O)N[C@@H](CCCNC(=N)N)C(=O)COC(=O)c3c(C)cccc3C)C(C)C)nn1)c1c(C)cc(C)n1[B-]2(F)F ... 6.77
CC1=CC(C)=[N+]2C1=C(CCCc1cn(CCCCCC(=O)N[C@@H](CC(C)C)C(=O)N[C@H](C(=O)N[C@@H](CO)C(=O)N[C@@H](CCCNC(=N)N)C(=O)COC(=O)c3c(C)cccc3C)C(C)C)nn1)c1c(C)cc(C)n1[B-]2(F)F ... 6.68

In the following, a different compound is considered.
Look at this compound and give its reported pKi. CC1=CC(C)=[N+]2C1=Cc1ccc(CCC(=O)N[C@@H](CC(C)C)C(=O)N[C@@H](CCCNC(=N)N)C(=O)N[C@@H](CO)C(=O)N[C@@H](CCCNC(=N)N)C(=O)COC(=O)c3c(C)cccc3C)n1[B-]2(F)F 6.47
